Item-by-item account of IC50
- Tested on: 966289-007-R4-J1-PDC complex spheroid viability
- protocol-details: Anticancer human tumor 966289-007-R4-J1-PDC patient-derived pancreatic adenocarcinoma cell line growth inhibition [RAS]
- stated-conditions: curve of first compound; second compound 3.16 µM
Value expressed in nM; do not type the unit.

Nc1ccn(C2OC(CO)C(O)C2(F)F)c(=O)n1 (stereo not given) + C#Cc1c(F)ccc2cc(O)cc(-c3ncc4c(N5CC6CCC(C5)N6)nc(OCC56CCCN5CC(F)C6)nc4c3F)c12    8.38
CC1(C)CCC(Nc2ncc(C(F)(F)F)c(-c3c[nH]c4c(P(C)(C)=O)c(C#N)ccc34)n2)CN1 (stereo not given) + C#Cc1c(F)ccc2cc(O)cc(-c3ncc4c(N5CC6CCC(C5)N6)nc(OCC56CCCN5CC(F)C6)nc4c3F)c12    19.1

Shift focus to the following entry.
*Q* What value of IC50 has been recorded for this entry: O=C(c1ccc(F)c(F)c1Nc1ccc(I)cc1F)N1CC(O)([C@@H]2CCCCN2)C1 + C#Cc1c(F)ccc2cc(O)cc(-c3ncc4c(N5CC6CCC(C5)N6)nc(OCC56CCCN5CC(F)C6)nc4c3F)c12
*A* 404

* * *

- System: 966289-007-R4-J1-PDC complex spheroid viability
- protocol-details: Anticancer human tumor 966289-007-R4-J1-PDC cell line growth inhibition [RAS];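 also: spheroids exposed to agents for one week before readout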;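 as to viability, T/C: percent viability relative to DMSO vehicle control wells as 100%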
- stated-conditions: second compound 3.16 µM; first compound 0.316 µM; stronger effect = lower value
Response field label: string, one of 1 (viability, T/C strictly below 50%) or 0.

Would you please look over these solved cases?
C=CC(=O)N1CCN(c2nc(OCC3CCCN3C)nc3c(F)c(-c4nc(N)cc(C)c4C(F)(F)F)c(Cl)cc23)C(C)C1 (stereo not given) + C#Cc1c(F)ccc2cc(O)cc(-c3ncc4c(N5CC6CCC(C5)N6)nc(OCC56CCCN5CC(F)C6)nc4c3F)c12    0
CC1(O)CCCC1n1c(=O)c(C(F)F)cc2cnc(NC3CCN(S(C)(=O)=O)CC3)nc21 (stereo not given) + C#Cc1c(F)ccc2cc(O)cc(-c3ncc4c(N5CC6CCC(C5)N6)nc(OCC56CCCN5CC(F)C6)nc4c3F)c12    1
NC1c2ccccc2OC12CCN(c1cnc3c(N4CCCc5ncccc54)n[nH]c3n1)CC2 (stereo not given) + C#Cc1c(F)ccc2cc(O)cc(-c3ncc4c(N5CC6CCC(C5)N6)nc(OCC56CCCN5CC(F)C6)nc4c3F)c12    0
CC(C)NCC(C(=O)N1CCN(c2ncnc3c2C(C)CC3O)CC1)c1ccc(Cl)cc1 (stereo not given) + C#Cc1c(F)ccc2cc(O)cc(-c3ncc4c(N5CC6CCC(C5)N6)nc(OCC56CCCN5CC(F)C6)nc4c3F)c12    0

Kindly consider the entry below.
*Q* Consider the compound O=C(c1ccc(F)c(F)c1Nc1ccc(I)cc1F)N1CC(O)([C@@H]2CCCCN2)C1 + C#Cc1c(F)ccc2cc(O)cc(-c3ncc4c(N5CC6CCC(C5)N6)nc(OCC56CCCN5CC(F)C6)nc4c3F)c12 . Is its viability, T/C strictly less than 50%?
*A* 0

* * *

- Tested on: 966289-007-R4-J1-PDC complex spheroid viability
- protocol-details: Anticancer human tumor 966289-007-R4-J1-PDC cell line growth inhibition [RAS]; active means viability on the fitted dose curve at most 10% of control; inactive means the rest;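 also: spheroids exposed to agents for one week before readout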
- stated-conditions: second compound 0.0949 µM; first compound 0.01 µM
Use one of these outcomes when replying: active, inactive

Nc1ccn(C2OC(CO)C(O)C2(F)F)c(=O)n1 (centres undefined) + CCn1c(-c2cccnc2C(C)OC)c2c3cc(ccc31)N1CCOC(CC(NC(=O)C(C(C)C)N(C)C(=O)C3(F)CCN(C(=O)C#CC(C)(C)N(C)C)CC3)C(=O)N3CCCC(N3)C(=O)OCC(C)(C)C2)C1    active
C=CC(=O)N1CCN(c2nc(OCC3CCCN3C)nc3c(F)c(-c4nc(N)cc(C)c4C(F)(F)F)c(Cl)cc23)C(C)C1 (centres undefined) + CCn1c(-c2cc(N3CCN(C)CC3)cnc2C(C)OC)c2c3cc(ccc31)-c1csc(n1)CC(NC(=O)C1CC1C)C(=O)N1CCCC(N1)C(=O)OCC(C)(C)C2    inactive
O=C(c1ccc(F)c(F)c1Nc1ccc(I)cc1F)N1CC(O)([C@@H]2CCCCN2)C1 + CCn1c(-c2cccnc2C(C)OC)c2c3cc(ccc31)N1CCOC(CC(NC(=O)C(C(C)C)N(C)C(=O)C3(F)CCN(C(=O)C#CC(C)(C)N(C)C)CC3)C(=O)N3CCCC(N3)C(=O)OCC(C)(C)C2)C1    inactive

*Q* Short answer needed: outcome of this test for CCN1CCN(Cc2ccc(Nc3ncc(F)c(-c4cc(F)c5nc(C)n(C(C)C)c5c4)n3)nc2)CC1 + CCn1c(-c2cc(N3CCN(C)CC3)cnc2C(C)OC)c2c3cc(ccc31)-c1csc(n1)CC(NC(=O)C1CC1C)C(=O)N1CCCC(N1)C(=O)OCC(C)(C)C2 ?
*A* inactive
